FYI, the data here is from patent US6518423B1.

MEASUREMENT_KIND: melting point

Answered cases to consult:
COMPOUND: Cl.N=C(N)Cc1ccc2c(c1)Nc1nccnc1S2
melting point: > 280 °C
//
COMPOUND: CN1c2ccc(C(O)c3cccs3)cc2Nc2nccnc21 (stereo not shown)
melting point: > 275 °C
//
COMPOUND: CN1c2ccc(CNC(N)=O)cc2Nc2nccnc21
melting point: > 275 °C
//
COMPOUND: COCN1c2ccc(OC)cc2Nc2nccnc21
melting point: 244 to 251 °C
//
COMPOUND: CC(C)(CC(=O)O)CC1CCN(Cc2ccc3c(c2)Nc2nccnc2S3)CC1
melting point: 230 to 232 °C

(Q) Report melting point for `C[C@@H]1CN(c2ncnc3c2ncn3Cc2ccc3c(c2)Nc2nccnc2S3)C[C@H](C)O1` please.
(A) 227 to 229 °C

(Q) Report melting point for `O=C(Cc1ccc2c(c1)Nc1nccnc1S2)NCCCN1CCC(C(=O)O)CC1` please.
(A) 143 °C (dec.)

(Q) Report melting point for `OC/C=C/CN1c2ccccc2Nc2nccnc21` please.
(A) 197 to 199 °C

(Q) Report melting point for `CCC1(CC(=O)O)CCN(Cc2ccc3c(c2)Nc2nccnc2S3)CC1` please.
(A) 225 to 226 °C

(Q) Report melting point for `OCc1ccc2c(c1)Nc1nccnc1S2` please.
(A) 187 to 189 °C

(Q) Report melting point for `c1cc2c(cn1)Sc1ccc(CN3CCCCC3)cc1N2` please.
(A) 163 to 166 °C

(Q) Report melting point for `CC(C)(CCC1CCN(Cc2ccc3c(c2)Nc2nccnc2S3)CC1)C(=O)O` please.
(A) 180 to 185 °C

(Q) Report melting point for `N#Cc1ncnc2c1ncn2Cc1ccc2c(c1)Nc1nccnc1S2` please.
(A) 272 to 274 °C

(Q) Report melting point for O=C(O)C1CCC(CNCc2ccc3c(c2)Nc2nccnc2S3)CC1 (stereo not shown) please.
(A) 217 to 220 °C

(Q) Report melting point for `NC(=O)C1CCN(Cc2ccc3c(c2)Nc2nccnc2S3)CC1` please.
(A) 225 to 228 °C

(Q) Report melting point for CC(CCC1C2CN(Cc3ccc4c(c3)Nc3nccnc3S4)CC1C(C)CC2C)C(=O)O (stereo not shown) [Example 100] please.
(A) 110 to 115 °C
